- TEST_DESCRIPTION: yeast display, Sf9 membrane polyspecificity reagent, FACS + sequencing; frameworks hold sequencing errors
OBSERVED_PROPERTY: polyreactivity (PSR sort gate)

Guide cases for polyreactivity (PSR sort gate), answers given:
query_sequence=QVQLVESGGGLVQAGGSLRLSCAASGRIFGVYAMGWYRQAPGKERELVAAISEGGGSTNYADSVKGRFTISRDNAKNTVYLQMNSLKPEDTAGYYCAATYRTGVRRYYSWGQGTQVTVSS observed_property="polyreactivity (PSR sort gate)" value="low polyreactivity"
query_sequence=QDQLVESGGGLVQAGGSLRLSCAASGRTFHRNAMGLYRQAPGKERELVAAITGTGGRTYYADSVKGRFTISRDNAKNTVYLQMNSLKPEDTEVYYCAARPWIKSGYWGQGTQVTVSW observed_property="polyreactivity (PSR sort gate)" value="high polyreactivity"
query_sequence=QVQLLVTGGGLVQAGGTLRISCAASGSIFYSYAMGWYRQSPGKERELVAAITGGGSTNYADSVKGRFTISLDNAKNTVYLQMNSLKPEDTAVYYCATDLYPIGAVIRYDYWGQGTQVTVSS observed_property="polyreactivity (PSR sort gate)" value="low polyreactivity"
query_sequence=QVQLVESCGGLVQAGGSLRLSCAASGSTFYRYAMGWYRQAPGKERELVARITRTGGITNYADSVKGRFTISRDNAKNTVYLQMNSLKPEDTAVYDCAKTNIRDHYYWGQGTQVTVSS observed_property="polyreactivity (PSR sort gate)" value="high polyreactivity"

Task: // query polyreactivity (PSR sort gate) value for entry `QVHLVESGGGLVQAGCSLRLSCAASGSIFSYYAMGWYRQAPGKERELVAAISVSGGNYADSVKGRFTISRDNAKNTVYLQMNSLKPEDTAVYYCAALNVYGSADVTTLEMDYWGQGTQVTVSS`
Result: low polyreactivity

Task: Using the record for `QVQLVESGGGLVQAGGSLRLSCAASGITLYRYVMGWYRQAPGKERELVADISGRGTSTYYADSVKGRFTISRDNAKNTVYLQMNSLKPEDTAVYYSNSEYTKTGALVIPYTYYYAEDYWGQGTQVTVSS` , report its polyreactivity (PSR sort gate).
Result: low polyreactivity

meta.source: the nanobody polyreactivity screen of Harvey et al. (2022)
